Listed below: MIC values for each entry.
# Tested on: Aspergillus niger ATCC 16404
# protocol_summary: In vitro antifungal MIC, Aspergillus niger ATCC 16404
# Assay type: cell-based
# reported_conditions: ATCC16404; Aspergillus niger ATCC 16404; 35°-37° C., 48 hours; read-out: MIC
# Description: The in vitro antifungal activity of the compounds of the present invention against a variety of fungiwas determined as follow: Test medium was prepared by dissolving first 5 g of dextrose and then 6.7 g of Bacto Yeast Nitrogen Base® (commercially available from Difco Laboratories) in 100 mL of distilled water. […]
Provide only the numeric value, understood in µg/mL.

// recorded MIC for [O-][S+]1c2ccccc2SN1CCCc1ccccc1 (stereo not shown) [Example 39] : 1.56

// recorded MIC for [O-][S+]1c2ccccc2SN1C1CC1 (stereo not shown) [Example 27] : 0.39

// recorded MIC for CCCCCCCCCN1Sc2ccccc2[S+]1[O-] (stereo not shown) [Example 7, 2-n-nonyl-1,3,2-benzodithiazole-1-oxide] : 0.78

// recorded MIC for [O-][S+]1c2ccccc2SN1Cc1cccs1 (stereo not shown) [Example 34] : 0.39

// recorded MIC for [O-][S+]1c2ccccc2SN1CCO (stereo not shown) [Example 18] : 6.25

Others:
// recorded MIC for CCCCCCCN1Sc2ccccc2[S+]1[O-] (stereo not shown) [Example 5, 2-n-heptyl-1,3,2-benzodithiazole-1-oxide] : 0.39

// recorded MIC for CC(C)(C)CCN1Sc2ccccc2[S+]1[O-] (stereo not shown) [Example 15] : 1.56

// recorded MIC for [O-][S+]1c2ccccc2SN1c1ccc2c(c1)OCO2 (stereo not shown) [Example 31] : 12.5

// recorded MIC for CC(C)(C)CC(C)(C)N1Sc2ccccc2[S+]1[O-] (stereo not shown) [Example 16] : 3.12

// recorded MIC for CN(C)c1ccc(CN2Sc3ccccc3[S+]2[O-])cc1 (stereo not shown) [Example 37] : 3.12

// recorded MIC for C#CCN1Sc2ccccc2[S+]1[O-] (stereo not shown) [Example 12] : 1.56

// recorded MIC for CCCN1Sc2ccccc2[S+]1[O-] (stereo not shown) [Example 3, 2-n-propyl-1,3,2-benzodithiazole-1-oxide] : 6.25
